# Tested on: Escherichia coli TOP10
# assayMethodText: shrunken log2 fold change of peptide-encoding DNA abundance (4.5 h post-induction vs induction); higher = less antimicrobial activity (less host growth inhibition)
# setupConditions: time post-induction: 4.5 h; library: site-saturation at positions 5, 18, 19, 20
The threshold is inclusive: shrunken log2 fold change of exactly -0.2 counts as YES; values below receive NO.

[[record]]
sequencechain = "RRIRPRPPRLPRPRPRPHVGPRP"
grouplabel = "YES"

[[record]]
sequencechain = "RRIRERPPRLPRPRPRPDQFPRP"
grouplabel = "YES"

[[record]]
sequencechain = "RRIRVRPPRLPRPRPRPPWPPRP"
grouplabel = "YES"

[[record]]
sequencechain = "RRIRTRPPRLPRPRPRPNRKPRP"
grouplabel = "YES"

[[record]]
sequencechain = "RRIRHRPPRLPRPRPRPGEPPRP"
grouplabel = "YES"


Could you verify whether the entry RRIRTRPPRLPRPRPRPAFYPRP shows shrunken log2 fold change of no less than -0.2?
YES

For this sequence, is measured shrunken log2 fold change -0.2 or higher? RRIRLRPPRLPRPRPRPPFMPRP
YES

Dear colleague, could you confirm whether RRIRVRPPRLPRPRPRPYVHPRP has shrunken log2 fold change at or above -0.2?
YES

Please tell me: is the sequence RRIRVRPPRLPRPRPRPSHHPRP at or over -0.2 in terms of shrunken log2 fold change?
NO

Quick check, shrunken log2 fold change >= -0.2? RRIRYRPPRLPRPRPRPLWCPRP
YES

Is reported shrunken log2 fold change greater than or equal to -0.2 here: RRIRLRPPRLPRPRPRPELKPRP
YES

Would you say RRIRCRPPRLPRPRPRPIHQPRP shows shrunken log2 fold change at minimum -0.2?
NO

shrunken log2 fold change >= -0.2 for RRIRTRPPRLPRPRPRPYYDPRP ?
NO

Decide: is the reported value of shrunken log2 fold change for RRIRDRPPRLPRPRPRPWCMPRP equal to or greater than -0.2?
NO

Decide: is the reported value of shrunken log2 fold change for RRIRARPPRLPRPRPRPKELPRP equal to or greater than -0.2?
YES

Is reported shrunken log2 fold change greater than or equal to -0.2 here: RRIRLRPPRLPRPRPRPSHDPRP
NO

Identify whether the reported shrunken log2 fold change of the following sequence is -0.2 or greater: RRIRLRPPRLPRPRPRPQYIPRP
YES

----------
# Test system: Escherichia coli TOP10
# assayMethodText: shrunken log2 fold change of peptide-encoding DNA abundance (4.5 h post-induction vs induction); higher = less antimicrobial activity (less host growth inhibition)
# setupConditions: time post-induction: 4.5 h; library: site-saturation at positions 5, 18, 19, 20
quantityMeasured: shrunken log2 fold change
# print the numeric value only

[[record]]
sequencechain = "RRIRDRPPRLPRPRPRPNNYPRP"
quantitymeasured = "shrunken log2 fold change"
reported = -0.542

[[record]]
sequencechain = "RRIRHRPPRLPRPRPRPKCQPRP"
quantitymeasured = "shrunken log2 fold change"
reported = -0.0621

[[record]]
sequencechain = "RRIRVRPPRLPRPRPRPWRRPRP"
quantitymeasured = "shrunken log2 fold change"
reported = 0.208


Entry under review: RRIRRRPPRLPRPRPRPHTLPRP . Reported shrunken log2 fold change?
-0.182

What value of measured shrunken log2 fold change is listed for RRIRWRPPRLPRPRPRPCCMPRP ?
-0.196

Could you tell me which shrunken log2 fold change is on file for RRIRNRPPRLPRPRPRPWAMPRP ?
-0.175

----------
Examples of sequences with documented shrunken log2 fold change follow.
# Tested on: Escherichia coli TOP10
# assayMethodText: shrunken log2 fold change of peptide-encoding DNA abundance (4.5 h post-induction vs induction); higher = less antimicrobial activity (less host growth inhibition)
# setupConditions: time post-induction: 4.5 h; library: site-saturation at positions 5, 18, 19, 20
Would you mind answering with just the numeric figure?

# example entries with known answers
[[record]]
sequencechain = "RRIRCRPPRLPRPRPRPEVYPRP"
quantitymeasured = "shrunken log2 fold change"
reported = -0.0302

[[record]]
sequencechain = "RRIRMRPPRLPRPRPRPTTWPRP"
quantitymeasured = "shrunken log2 fold change"
reported = 0.745

[[record]]
sequencechain = "RRIRYRPPRLPRPRPRPMIIPRP"
quantitymeasured = "shrunken log2 fold change"
reported = -0.138

[[record]]
sequencechain = "RRIRARPPRLPRPRPRPVKLPRP"
quantitymeasured = "shrunken log2 fold change"
reported = -0.59

[[record]]
sequencechain = "RRIRHRPPRLPRPRPRPRPMPRP"
quantitymeasured = "shrunken log2 fold change"
reported = -0.00237


I would be grateful if you could share the reported shrunken log2 fold change for RRIRARPPRLPRPRPRPWASPRP .
-0.145

Reported shrunken log2 fold change, sequence RRIRQRPPRLPRPRPRPCTMPRP : ____
-0.804

----------
Parameter shrunken log2 fold change: see the listing below.
# Test system: Escherichia coli TOP10
# assayMethodText: shrunken log2 fold change of peptide-encoding DNA abundance (4.5 h post-induction vs induction); higher = less antimicrobial activity (less host growth inhibition)
# setupConditions: time post-induction: 4.5 h; library: site-saturation at positions 5, 18, 19, 20
Lab note: jot down the number only; don't add units.

Check out these entries, answers already filled in.
[[record]]
sequencechain = "RRIRTRPPRLPRPRPRPHMFPRP"
testsystem = "Escherichia coli TOP10"
reported = -0.0142

[[record]]
sequencechain = "RRIRDRPPRLPRPRPRPHICPRP"
testsystem = "Escherichia coli TOP10"
reported = -0.205

[[record]]
sequencechain = "RRIRRRPPRLPRPRPRPLKMPRP"
testsystem = "Escherichia coli TOP10"
reported = 0.156


Identify the measured shrunken log2 fold change of RRIRFRPPRLPRPRPRPIGAPRP for Escherichia coli TOP10.
0.064

Item RRIRPRPPRLPRPRPRPFRSPRP with Escherichia coli TOP10 - shrunken log2 fold change?
-0.152

GET /values?readout=shrunken log2 fold change&system=Escherichia coli TOP10&item= RRIRWRPPRLPRPRPRPCCQPRP
0.0191

I'm curious: which shrunken log2 fold change was measured for RRIRFRPPRLPRPRPRPSCCPRP tested on Escherichia coli TOP10?
-0.443

Hi! What's the reported shrunken log2 fold change for RRIRLRPPRLPRPRPRPLCAPRP on Escherichia coli TOP10?
0.11

Field: shrunken log2 fold change (Escherichia coli TOP10). Entry: RRIRWRPPRLPRPRPRPSEDPRP
0.145

----------
# Test system: Escherichia coli TOP10
# assayMethodText: shrunken log2 fold change of peptide-encoding DNA abundance (4.5 h post-induction vs induction); higher = less antimicrobial activity (less host growth inhibition)
# setupConditions: time post-induction: 4.5 h; library: site-saturation at positions 5, 18, 19, 20
quantityMeasured: shrunken log2 fold change
Format: numeric value only, no unit, no commentary.

[[record]]
sequencechain = "RRIRFRPPRLPRPRPRPRVFPRP"
testsystem = "Escherichia coli TOP10"
reported = 0.232

[[record]]
sequencechain = "RRIRFRPPRLPRPRPRPKPTPRP"
testsystem = "Escherichia coli TOP10"
reported = 0.879


# input sequence: RRIRVRPPRLPRPRPRPTPGPRP ; wanted: its shrunken log2 fold change
0.258

Sample RRIRNRPPRLPRPRPRPGATPRP — what was its shrunken log2 fold change?
0.124

What value of shrunken log2 fold change has been reported for the following sequence? RRIRWRPPRLPRPRPRPTCLPRP
0.324

Which shrunken log2 fold change is reported for this sequence? RRIRFRPPRLPRPRPRPTGVPRP
0.123

Quick one: shrunken log2 fold change for RRIRFRPPRLPRPRPRPTNWPRP ?
0.426

# input sequence: RRIRDRPPRLPRPRPRPKHAPRP ; wanted: its shrunken log2 fold change
0.222

----------
# Test system: Escherichia coli TOP10;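 further: peptides expressed intracellularly from a pBAD plasmid library in pooled LB shake-flask culture, induced with 0.3% L-arabinose, DNA abundance read by NGS, three biological replicates, DESeq2 with apeglm shrinkage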
# assayMethodText: shrunken log2 fold change of peptide-encoding DNA abundance (4.5 h post-induction vs induction); higher = less antimicrobial activity (less host growth inhibition)
# setupConditions: time post-induction: 4.5 h; library: site-saturation at positions 5, 18, 19, 20
Documented shrunken log2 fold change across a set of sequences

[[record]]
sequencechain = "RRIRARPPRLPRPRPRPFMEPRP"
quantitymeasured = "shrunken log2 fold change"
reported = 0.0746

[[record]]
sequencechain = "RRIRVRPPRLPRPRPRPTPLPRP"
quantitymeasured = "shrunken log2 fold change"
reported = 0.251

[[record]]
sequencechain = "RRIRWRPPRLPRPRPRPNPSPRP"
quantitymeasured = "shrunken log2 fold change"
reported = 0.219

[[record]]
sequencechain = "RRIRGRPPRLPRPRPRPVNSPRP"
quantitymeasured = "shrunken log2 fold change"
reported = 0.0202

[[record]]
sequencechain = "RRIRCRPPRLPRPRPRPICRPRP"
quantitymeasured = "shrunken log2 fold change"
reported = -0.0824

[[record]]
sequencechain = "RRIRSRPPRLPRPRPRPLHGPRP"
quantitymeasured = "shrunken log2 fold change"
reported = 0.0705


Entry under review: RRIRMRPPRLPRPRPRPNALPRP . Reported shrunken log2 fold change?
0.313

Entry under review: RRIRPRPPRLPRPRPRPVQWPRP . Reported shrunken log2 fold change?
0.151

Would you kindly share the measured shrunken log2 fold change for RRIRIRPPRLPRPRPRPWVWPRP ?
0.414

Which shrunken log2 fold change value is on record for RRIRWRPPRLPRPRPRPLDQPRP ?
-0.0549

What value of shrunken log2 fold change has been recorded for this entry: RRIRMRPPRLPRPRPRPDLIPRP
0.0508

So what's the measured shrunken log2 fold change for this one? RRIRNRPPRLPRPRPRPLEQPRP
-0.166

Query (sequence): RRIRWRPPRLPRPRPRPTSGPRP ; field requested: shrunken log2 fold change
0.593

So what does the record say about shrunken log2 fold change for RRIRVRPPRLPRPRPRPIAFPRP ?
-0.207

GET /values?readout=shrunken log2 fold change&item= RRIRNRPPRLPRPRPRPDNMPRP
-0.104

Recorded shrunken log2 fold change of RRIRCRPPRLPRPRPRPWWVPRP , please.
-0.208

Given the entry RRIRFRPPRLPRPRPRPQESPRP , report its measured shrunken log2 fold change.
0.124

Which shrunken log2 fold change is listed for RRIRCRPPRLPRPRPRPIWPPRP ?
0.415

Returns the measured shrunken log2 fold change for the input sequence. Input: RRIRIRPPRLPRPRPRPTSKPRP
-0.207
